System: Trichophyton rubrum
Experiment: Antifungal activity against Trichophyton rubrum IFO 9185 after 48 hrs by broth dilution method
Format: functional
Conditions: IFO 9185, 48 h
experimental.endpoint: MIC

Solved cases (4 shown):
1) COc1ccccc1C1SC2C(=NOC2c2ccc(F)cc2)N1c1ccccc1 (stereo not given) : > 120 µM
2) COc1ccccc1C1SC2C(=NOC2c2ccc(F)cc2)N1c1ccc(Cl)cc1 (stereo not given) : 30 µM
3) COc1ccc(Cc2ccc(OC)c(C3SC4C(=NOC4c4ccc(F)cc4)N3c3ccc(O)cc3)c2)cc1C1SC2C(=NOC2c2ccc(F)cc2)N1c1ccc(O)cc1 (stereo not given) : 7.5 µM
4) COc1ccc(Cc2ccc(OC)c(C3SC4C(=NOC4c4ccc(F)cc4)N3c3ccccc3)c2)cc1C1SC2C(=NOC2c2ccc(F)cc2)N1c1ccccc1 (stereo not given) : 30 µM

Shift focus to the following entry.
Assign MIC to the following record: COc1ccc(Cc2ccc(OC)c(C3SC4C(=NOC4c4ccc(F)cc4)N3c3ccc(C)cc3)c2)cc1C1SC2C(=NOC2c2ccc(F)cc2)N1c1ccc(C)cc1 (stereo not given) > 120 µM

* * *

System: Aspergillus fumigatus
Assay: Antifungal activity against Aspergillus fumigatus HIC 6094 after 48 hrs by broth dilution method
Assay type: functional
Conditions: HIC 6094, 48 h
Rule: MIC below 30 µM gives class 1, anything at or above gives class 0.

1. COc1ccccc1C1SC2C(=NOC2c2ccc(F)cc2)N1c1ccc([N+](=O)[O-])cc1 (stereo not given) : class 0
2. COc1ccccc1C1SC2C(=NOC2c2ccc(F)cc2)N1c1ccc(F)cc1 (stereo not given) : class 0
3. C[C@@H]1[C@H](O)[C@@H](C)/C=C/C=C/C=C/C=C/C=C/C=C/C=C/[C@H](O[C@@H]2O[C@H](C)[C@@H](O)[C@H](N)[C@@H]2O)C[C@@H]2O[C@](O)(C[C@@H](O)C[C@@H](O)[C@H](O)CC[C@@H](O)C[C@@H](O)CC(=O)O[C@H]1C)C[C@H](O)[C@H]2C(=O)O [AMPHOTERICIN B] : class 1

Criterion: MIC strictly below 30 µM. Is it met by COc1ccc(Cc2ccc(OC)c(C3SC4C(=NOC4c4ccc(F)cc4)N3c3ccccc3C)c2)cc1C1SC2C(=NOC2c2ccc(F)cc2)N1c1ccccc1C (stereo not given) ? class 1

Dear reviewer, please state whether COc1ccc(Cc2ccc(OC)c(C3SC4C(=NOC4c4ccc(F)cc4)N3c3ccc(Cl)cc3)c2)cc1C1SC2C(=NOC2c2ccc(F)cc2)N1c1ccc(Cl)cc1 (stereo not given) has MIC strictly beneath 30 µM. class 1

Below 30 µM on MIC? Entry COc1ccc(Cc2ccc(OC)c(C3SC4C(=NOC4c4ccc(F)cc4)N3c3ccc(F)cc3)c2)cc1C1SC2C(=NOC2c2ccc(F)cc2)N1c1ccc(F)cc1 (stereo not given) class 1

Decide: MIC of COc1ccccc1C1SC2C(=NOC2c2ccc(F)cc2)N1c1ccc(C)cc1 (stereo not given) strictly below 30 µM? class 0

Criterion: MIC strictly below 30 µM. Is it met by COc1ccc(Cc2ccc(OC)c(C3SC4C(=NOC4c4ccc(F)cc4)N3c3ccc(O)cc3)c2)cc1C1SC2C(=NOC2c2ccc(F)cc2)N1c1ccc(O)cc1 (stereo not given) ? class 1

* * *

Answer each item with its documented MIC.
Tested on: Trichophyton rubrum
Test: Antifungal activity against Trichophyton rubrum IFO 9185 after 48 hrs by broth dilution method
Format: functional
Conditions: IFO 9185, 48 h
Answers are plain numbers, in µM.

1) COc1ccccc1C1SC2C(=NOC2c2ccc(F)cc2)N1c1ccc([N+](=O)[O-])cc1 (stereo not drawn) : 120

Quick one: give measured MIC for `C[C@@H]1[C@H](O)[C@@H](C)/C=C/C=C/C=C/C=C/C=C/C=C/C=C/[C@H](O[C@@H]2O[C@H](C)[C@@H](O)[C@H](N)[C@@H]2O)C[C@@H]2O[C@](O)(C[C@@H](O)C[C@@H](O)[C@H](O)CC[C@@H](O)C[C@@H](O)CC(=O)O[C@H]1C)C[C@H](O)[C@H]2C(=O)O` 3.75

* * *

For each of the molecules below, state its MIC.
Tested on: Trichophyton rubrum
Test: Antifungal activity against Trichophyton rubrum IFO 9185 after 48 hrs by broth dilution method
Assay type: functional
Conditions: IFO 9185, 48 h
One number for each entry, in µM.

1) COc1ccccc1C1SC2C(=NOC2c2ccc(F)cc2)N1c1ccccc1C (configuration not stated) : 15
2) COc1ccc(Cc2ccc(OC)c(C3SC4C(=NOC4c4ccc(F)cc4)N3c3ccc(F)cc3)c2)cc1C1SC2C(=NOC2c2ccc(F)cc2)N1c1ccc(F)cc1 (configuration not stated) : 3.75
3) COc1ccc(Cc2ccc(OC)c(C3SC4C(=NOC4c4ccc(F)cc4)N3c3ccccc3C)c2)cc1C1SC2C(=NOC2c2ccc(F)cc2)N1c1ccccc1C (configuration not stated) : 3.75
4) COc1ccc(Cc2ccc(OC)c(C3SC4C(=NOC4c4ccc(F)cc4)N3c3ccc([N+](=O)[O-])cc3)c2)cc1C1SC2C(=NOC2c2ccc(F)cc2)N1c1ccc([N+](=O)[O-])cc1 (configuration not stated) : 30
5) COc1ccccc1C1SC2C(=NOC2c2ccc(F)cc2)N1c1ccc(F)cc1 (configuration not stated) : 60

For the next question, use this molecule.
Tell me MIC reported for COc1ccc(Cc2ccc(OC)c(C3SC4C(=NOC4c4ccc(F)cc4)N3c3ccc(Cl)cc3)c2)cc1C1SC2C(=NOC2c2ccc(F)cc2)N1c1ccc(Cl)cc1 (configuration not stated) 3.75

* * *

Would you kindly list MIC for each of these compounds?
Tested on: Aspergillus fumigatus
Assay: Antifungal activity against Aspergillus fumigatus HIC 6094 after 48 hrs by broth dilution method
Format: functional
Conditions: HIC 6094, 48 h
Numbers only, in µM.

1) COc1ccc(Cc2ccc(OC)c(C3SC4C(=NOC4c4ccc(F)cc4)N3c3ccc([N+](=O)[O-])cc3)c2)cc1C1SC2C(=NOC2c2ccc(F)cc2)N1c1ccc([N+](=O)[O-])cc1 (configuration not stated) : 30
2) COc1ccccc1C1SC2C(=NOC2c2ccc(F)cc2)N1c1ccccc1C (configuration not stated) : 30
3) COc1ccc(Cc2ccc(OC)c(C3SC4C(=NOC4c4ccc(F)cc4)N3c3ccc(C)cc3)c2)cc1C1SC2C(=NOC2c2ccc(F)cc2)N1c1ccc(C)cc1 (configuration not stated) : 30
4) COc1ccccc1C1SC2C(=NOC2c2ccc(F)cc2)N1c1ccc(Cl)cc1 (configuration not stated) : 30
5) COc1ccccc1C1SC2C(=NOC2c2ccc(F)cc2)N1c1ccc(O)cc1 (configuration not stated) : 60

Proceeding to the next compound to report its MIC.
State, in one line, measured MIC of COc1ccc(Cc2ccc(OC)c(C3SC4C(=NOC4c4ccc(F)cc4)N3c3ccccc3)c2)cc1C1SC2C(=NOC2c2ccc(F)cc2)N1c1ccccc1 (configuration not stated) 60

Ref: ChEMBL document CHEMBL1165873
